FITC-labeled Pri-MP uptake (Endocytosis species) alone or with added inhibitor data for Y79 follow.
Kindly answer with a numeric value in %, unit omitted.

Reported FITC-labeled Pri-MP uptake (Endocytosis species) alone or with added inhibitor for `O=c1c(-c2ccc(O)cc2)coc2cc(O)cc(O)c12` was 85.2

Reported FITC-labeled Pri-MP uptake (Endocytosis species) alone or with added inhibitor for `O=C(N/N=C/c1ccc(O)c(O)c1)c1cc2ccccc2cc1O` was 73.8

Reported FITC-labeled Pri-MP uptake (Endocytosis species) alone or with added inhibitor for `C=C1[C@@H](C)[C@H]2[C@H](Cc3ccccc3)NC(=O)[C@]23[C@H](OC(C)=O)/C=C/[C@@](C)(O)C(=O)[C@@H](C)C/C=C/[C@H]3[C@@H]1O` was 22.3

Reported FITC-labeled Pri-MP uptake (Endocytosis species) alone or with added inhibitor for N=C(N)NC(=O)c1nc(Cl)c(N)nc1N [amiloride] was 29.8

Reported FITC-labeled Pri-MP uptake (Endocytosis species) alone or with added inhibitor for `CCCCC[C@@H](O)[C@H]1C(=O)O[C@H](C)[C@@H](O)/C=C/C=C/C=C/C=C/C=C(\C)[C@@H](O)C[C@H](O)C[C@H](O)C[C@H](O)C[C@H](O)C[C@H](O)C[C@@H]1O` was 78.6

Reported FITC-labeled Pri-MP uptake (Endocytosis species) alone or with added inhibitor for `CN(C)CCCN1c2ccccc2Sc2ccc(Cl)cc21` was 87.6

Hello, the source for this data is paper PMC12510174, in case you need it.
